system: ACHN; assay: NCI tumour cell line growth inhibition, 48 h
Calls of active or inactive are those of the source. No stated cut-off is given here; in the data, active = GI50 up to about 1.1 µM and inactive = higher.

Compound: CC(C)(C)OC[C@H](O)CC#N
GI50: > 100 µM (inactive)
//
Compound: N[C@@H]1c2c(Br)sc(Br)c2C(=O)[C@H]1Br
GI50: 20.6 µM (inactive)
//
Compound: C=C(C)C(O)C(O)c1c(OC)ccc2ccc(=O)oc12 (stereo not drawn)
GI50: > 100 µM (inactive)
//
Compound: COC(=O)CCc1c(Cc2ccc[nH]2)[nH]c(C(=O)OCc2ccccc2)c1C
GI50: 23.1 µM (inactive)
//
Compound: CN(C)CC1(C)CC/C(=C\c2ccc3c(c2)OCO3)C1=O (stereo not drawn)
GI50: > 100 µM (inactive)
//
Compound: COc1c(C(=O)O)oc2c(OC)cccc12
GI50: > 100 µM (inactive)
//
Compound: Oc1ccc(-c2nn3c(CCCCCCCCc4nnc5sc(-c6ccc(O)cc6)nn45)nnc3s2)cc1
GI50: > 100 µM (inactive)
//
Compound: C#CCOC(=O)C(N)C(C)O (stereo not drawn)
GI50: > 100 µM (inactive)
//
Compound: CCOC(=O)n1c2ccccc2c(=O)n1CCO
GI50: > 100 µM (inactive)
//
Compound: COC1(OC)c2ccccc2C2(O)c3ccccc3C(=O)C12 (stereo not drawn)
GI50: 34.1 µM (inactive)
//
Compound: CCOC(=O)CN1C(=O)c2c(c(C)n(-c3ccccc3)c2C)C1=O
GI50: > 100 µM (inactive)
//
Compound: COC(=O)C1=C(C(=O)OC)C2C=CC1C1C(Cl)=C(Cl)C21 (stereo not drawn)
GI50: > 100 µM (inactive)
//
Compound: CN(Cc1cc(Cl)cc(Cl)c1O)Cc1c(O)ccc2ccccc12
GI50: 17.3 µM (inactive)
//
Compound: CCCn1cnc2c(SCc3ccc(Cl)cc3)nc(N)nc21
GI50: 16.3 µM (inactive)
//
Compound: COc1cc(/C=C2\N=C(c3ccccc3)N(/N=C/c3cc4cc(C)ccc4nc3Cl)C2=O)cc(OC)c1OC
GI50: 34.2 µM (inactive)
//
Compound: CCOC(=O)c1c(C)n(Cc2ccccc2)c(=O)c2ccccc2c(=O)c2c(=O)ccc(=O)c1=2
GI50: 30.7 µM (inactive)
//
Compound: OC(c1ccc(F)cc1)C(F)(F)c1nc(-c2ccccc2)no1 (stereo not drawn)
GI50: 27.2 µM (inactive)
//
Compound: N#CCCC1C(C#N)C2(Cl)CC1(Cl)C(Cl)=C2Cl (stereo not drawn)
GI50: > 10 µM (inactive)

###

test system: SK-MEL-2; experiment: NCI tumour cell line growth inhibition, 48 h
Calls of active or inactive are those of the source. No stated cut-off is given here; in the data, active = GI50 up to about 1.1 µM and inactive = higher.
Classes used: Y = active, N = inactive

Compound: Cc1cc(C)c(-n2c(C)c(C)c(C#N)c2N)c(C)c1
Label: N

Compound: Cc1cc(O)cc2c1c(=O)c1ccccc1n2C
Label: N

Compound: N=c1oc2ccccc2cc1C(=O)Nc1nccs1
Label: N

Compound: COC(=O)c1c(C)[n+]([O-])c2cc(Cl)c(Cl)cc2[n+]1[O-]
Label: N

Compound: Cn1c(-c2ccccc2)cc2c3ccsc3c3ccsc3c21
Label: N

Compound: CC1=CCCC2C1(C)CCC(C)C2(C)Cc1cc(O)ccc1O (stereo not given)
Label: N

Compound: Cc1ncc([N+](=O)[O-])n1CCNC(=O)Cn1ccnc1[N+](=O)[O-]
Label: N

Compound: CC(C)C(C(=O)O)N(CC1(O)OCC(O)C(O)C1O)N=O (stereo not given)
Label: N

Compound: CC(C)(C)C(=O)C(N)C(=O)C(C)(C)C
Label: N

Compound: COC(=O)CC1C(C)(C)C(=O)C2CC3=C4CC(=O)OC(c5ccoc5)C4(C)CCC3C1(C)C2=O (stereo not given)
Label: N

Compound: CCOC(=O)c1c[nH]c2cc3c(cc2c1=O)CCS3
Label: N

Compound: NC(CS)C(=O)NCCNc1ccc(NCCNC(=O)C(N)CS)c2c1C(=O)c1c(O)ccc(O)c1C2=O (stereo not given)
Label: Y

Compound: O=c1c2ccccc2oc2nc3n(c(=O)c12)CCCS3
Label: N

Compound: Clc1ccc2c(c1)-c1c3c(nn1-c1ccccc1)-c1ccccc1SC3O2 (stereo not given)
Label: N

Compound: CC(=O)N1N=C(c2ccccc2Nc2ccccc2C2=NN(C(C)=O)C(c3ccccc3)O2)OC1c1ccccc1 (stereo not given)
Label: N

Compound: C[N+](C)(C)CC1CCC(C[N+](C)(C)C)C1=O (stereo not given)
Label: N

Compound: COc1ccc2c(c1)SC1=Nc3sc4cc(OC)ccc4[n+]3CN12
Label: N

Compound: COc1cccc(C(NC2=NCCC=N2)c2cc3c(cc2O)OCO3)c1O (stereo not given)
Label: N

Compound: O=P1(NCCCl)OCCCN1CCCl (stereo not given) [IFOSFAMIDE]
Label: N

Compound: Cc1ccc2nc(Cl)c(/C=N/N3C(=O)/C(=C/c4ccc(N(C)C)cc4)N=C3c3ccccc3)cc2c1
Label: N

Compound: C#CCCCC(=O)N(C(=O)C[S+]([O-])CC)c1ccccc1 (stereo not given)
Label: N

Compound: O=S(=O)(N/N=C/c1cccc(/C=N/NS(=O)(=O)c2ccccc2)c1)c1ccccc1
Label: N

Compound: O=C1NC(N/N=C/c2ccccc2)=N/C1=C\c1ccco1
Label: N

Compound: CCCn1cnc2c(SCc3ccc(Cl)cc3)nc(N)nc21
Label: N

Compound: CCCCc1ccc(Nc2nc3c(ncn3COCCBr)c(=O)[nH]2)cc1
Label: N

###

system: Hs-578T; test: NCI tumour cell line growth inhibition, 48 h
Calls of active or inactive are those of the source. Rule as the data show it: active = GI50 up to about 1.1 µM and inactive = higher.

Molecule: Cc1cc(Nc2ccc(/N=N/c3ccc(O)c4ncccc34)cc2)nc(C)n1
GI50: 7.03 µM (inactive)
//
Molecule: COc1cc2c(cc1OC)C(=O)/C(=C/c1cc(Cl)cc(Cl)c1)C2
GI50: 11.3 µM (inactive)
//
Molecule: COc1ccc(/C=C(/C(=O)c2ccc(Cl)cc2)N2C=CC=CC2=C(C#N)C#N)cc1OC
GI50: 1.66 µM (inactive)
//
Molecule: CO[C@@H]1C[C@H]2[C@@H]3CC[C@H]([C@H](C)COC(C)=O)[C@@]3(C)CC[C@@H]2[C@@]2(C)CC[C@H]3C[C@]312
GI50: > 100 µM (inactive)
//
Molecule: C/C=C(\C)C(O)C(C)C(O)C/C=C(C)/C=C(\C)C/C(C)=C/C/C=C(\C)C(O)C(C)c1ccc(CCC)c(=O)o1 (configuration not stated)
GI50: 14.5 µM (inactive)
//
Molecule: COC(=O)/C=C1/SC(/C(=C(/[O-])OC)[n+]2ccc3ccccc3c2)=NC1=O
GI50: 25.4 µM (inactive)
//
Molecule: COc1cccc(C(NC2=NCCC=N2)c2cc3c(cc2O)OCO3)c1O (configuration not stated)
GI50: 25.4 µM (inactive)

###

test system: HL-60; test: NCI tumour cell line growth inhibition, 48 h
Active and inactive are the calls of the source. Cut-off read from the data, not from the text of the source: active = GI50 up to about 1.1 µM and inactive = higher.

Compound: CCN(C(C)=N)c1ccccc1
GI50: 32.8 µM (inactive)
//
Compound: COc1cc2c(cc1OC)CC(N=[N+]=[N-])c1cc(OC)c(OC)cc1/C=C\2 (configuration not stated)
GI50: 10 µM (inactive)
//
Compound: O=C1NC(N/N=C/c2ccccc2)=N/C1=C\c1ccco1
GI50: > 100 µM (inactive)
//
Compound: Cc1cc(C)c2c(=O)n(CN3CCC(C#N)(c4ccccc4)CC3)sc2n1
GI50: 18.5 µM (inactive)
//
Compound: CC(C)(C)c1cc(O)c2c(c1O)C(=O)CCC2
GI50: 20.2 µM (inactive)
//
Compound: COC(=O)[C@@]1(O)CC(C)C=C1C=O (some centres not stated)
GI50: 22.1 µM (inactive)
//
Compound: CC1CC[C@@]2(OC1)OC1C[C@H]3[C@@H]4CC=C5CC(OC6OC(CO)C(OC7OC(CO)C(O)C(OC8OCC(O)C(O)C8O)C7OC7OC(CO)C(O)C(O)C7O)C(O)C6O)CCC5(C)[C@H]4CCC3(C)C1[C@@H]2C (some centres not stated)
GI50: 4.9 µM (inactive)
//
Compound: Cc1cc(=O)oc2cc(O)c(CN(C)CC(=O)O)cc12
GI50: > 100 µM (inactive)
//
Compound: Nc1ccc(Cc2ccc(N)c(C(=O)O)c2)cc1C(=O)O
GI50: > 100 µM (inactive)
//
Compound: COc1cc(/C=C2\N=C(c3ccccc3)N(/N=C/c3cc4cc(C)ccc4nc3Cl)C2=O)cc(OC)c1OC
GI50: 10.5 µM (inactive)
//
Compound: O=C(O)c1nc(-c2ccccc2)ncc1-c1nnnn1-c1ccccc1
GI50: > 100 µM (inactive)
//
Compound: Cc1ccc2nc(Cl)c(/C=N/N3C(=O)/C(=C/c4ccc(N(C)C)cc4)N=C3c3ccccc3)cc2c1
GI50: 32.4 µM (inactive)
//
Compound: O=S(=O)(O)C1CCC(O)C2NCCCC21 (configuration not stated)
GI50: 20.7 µM (inactive)
//
Compound: CN(C)c1ccc(/C(F)=C(F)/C(F)=C(F)/C(F)=C(\F)c2ccc(Br)cc2)cc1
GI50: 8.97 µM (inactive)
//
Compound: CCCCCCCCCCCCC/C=C1\C[C@H](O)COC1=O
GI50: 19.8 µM (inactive)
//
Compound: Cc1cc(C)c(-n2c(C)c(C)c(C#N)c2N)c(C)c1
GI50: 15.1 µM (inactive)
//
Compound: O=C(O)CC/C(=N\Nc1nsc2ccccc12)c1ccc(Cl)cc1
GI50: 23.6 µM (inactive)
